The measured values listed here are drawn from patent US10526327B2.

# ASSAYED_TARGET: Jarid1A (Homo sapiens, UniProt P29375)
# Construct: purchased BPS Bioscience 50110
# Sequence (P29375 1-1090): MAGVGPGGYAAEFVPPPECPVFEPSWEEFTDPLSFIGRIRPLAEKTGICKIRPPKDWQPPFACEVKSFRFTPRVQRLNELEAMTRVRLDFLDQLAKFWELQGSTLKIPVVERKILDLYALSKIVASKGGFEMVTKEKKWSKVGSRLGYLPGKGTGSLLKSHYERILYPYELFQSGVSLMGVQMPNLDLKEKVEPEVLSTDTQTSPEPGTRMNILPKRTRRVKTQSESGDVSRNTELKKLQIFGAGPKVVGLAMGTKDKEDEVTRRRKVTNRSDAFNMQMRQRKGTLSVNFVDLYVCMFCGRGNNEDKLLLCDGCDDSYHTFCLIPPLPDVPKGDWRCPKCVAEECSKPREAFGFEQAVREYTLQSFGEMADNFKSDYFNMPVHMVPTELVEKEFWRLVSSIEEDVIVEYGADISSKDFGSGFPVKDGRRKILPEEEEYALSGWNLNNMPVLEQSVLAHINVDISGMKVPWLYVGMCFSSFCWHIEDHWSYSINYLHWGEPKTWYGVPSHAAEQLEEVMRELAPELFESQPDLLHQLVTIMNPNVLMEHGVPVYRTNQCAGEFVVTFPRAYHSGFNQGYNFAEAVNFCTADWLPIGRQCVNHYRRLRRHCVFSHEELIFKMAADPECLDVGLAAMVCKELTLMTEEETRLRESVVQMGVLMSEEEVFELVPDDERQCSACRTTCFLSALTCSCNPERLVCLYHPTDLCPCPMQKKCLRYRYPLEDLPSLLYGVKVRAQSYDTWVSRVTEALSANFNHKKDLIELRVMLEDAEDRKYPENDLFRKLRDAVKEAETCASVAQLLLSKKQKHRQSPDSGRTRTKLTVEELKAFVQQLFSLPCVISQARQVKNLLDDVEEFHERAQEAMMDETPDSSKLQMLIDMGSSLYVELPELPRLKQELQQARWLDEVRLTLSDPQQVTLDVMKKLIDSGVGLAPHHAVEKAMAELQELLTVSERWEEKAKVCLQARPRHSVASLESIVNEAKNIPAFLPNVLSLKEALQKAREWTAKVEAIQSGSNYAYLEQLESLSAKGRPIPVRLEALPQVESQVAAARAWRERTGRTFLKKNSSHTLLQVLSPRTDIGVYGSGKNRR
# TEST_DETAILS: Jarid1A in vitro enzyme inhibition assay (TR-FRET)
# Format: biochemical
ASSAY_METRIC: IC50

# annotated cases, reported IC50 shown
COMPOUND: Cn1cnc(-c2nccc3c(O)nc(OCc4ccccc4Cl)nc23)c1 [Example 105]
IC50: 1000 to 10000 nM
//
COMPOUND: Oc1nc(OCC2CCOc3ccccc32)nc2cnccc12 (centres unmarked) [Example 195]
IC50: 100 to 1000 nM
//
COMPOUND: Cc1nn(C)c2cc(Oc3nc(O)c4ccnc(-c5cn(C)cn5)c4n3)ccc12 [Example 85]
IC50: ≤ 100 nM
//
COMPOUND: O=S(=O)(c1ccccc1)N1CCC(n2cc(Oc3nc(O)c4ccncc4n3)cn2)CC1 [Example 95]
IC50: ≤ 100 nM

Q) Which IC50 is reported for this compound? CC(=O)N1CCC[C@H](n2cc(Oc3nc(O)c4ccncc4n3)cn2)C1 [Example 164]
A) ≤ 100 nM
